melting point values for the compounds below.

These solved cases illustrate the format of a correct answer.
[
  {
    "COMPOUND": "O=S(=O)(c1cccc(Br)c1)N1CCNCC1",
    "PROPERTY_NAME": "melting point",
    "RESULT": "97 to 101 °C"
  },
  {
    "COMPOUND": "COc1cc(C)ccc1OCC(=O)O",
    "PROPERTY_NAME": "melting point",
    "RESULT": "118 to 120 °C"
  },
  {
    "COMPOUND": "Cc1cc(C(=O)O)c2c(C)noc2n1",
    "PROPERTY_NAME": "melting point",
    "RESULT": "233 to 235 °C"
  },
  {
    "COMPOUND": "Cc1cc(O)c(C(=O)O)cc1S(=O)(=O)Cl",
    "PROPERTY_NAME": "melting point",
    "RESULT": "162 to 164 °C"
  },
  {
    "COMPOUND": "Clc1cnc2nc(Cl)oc2c1",
    "PROPERTY_NAME": "melting point",
    "RESULT": "68 to 70 °C"
  }
]

Supply recorded melting point for "CCOC(=O)C(=O)c1ncc(Cl)n1C" here. 46 to 48 °C

Give melting point for the following compound: "Nc1ccc(-c2nnc(O)o2)cc1" 166 to 168 °C

Report melting point, nothing else, for this compound: "Nc1cccc(Oc2ncc(Br)cn2)c1" 92 to 94 °C

Supply reported melting point belonging to this compound: CC(C)CCC(C)NC(=O)C1CSCN1 (stereo unspecified) 77 to 79 °C

Please indicate melting point recorded for "Sc1nnnn1-c1ccc2c(c1)OCCO2" 143 to 145 °C

Determine from records and report melting point for "CC(C)c1cc(C(C)C)c([N+](=O)[O-])cc1[N+](=O)[O-]" 77 to 79 °C

Give the reported value of melting point for this record: "NN=C1C(=O)Nc2c(Cl)cc(Cl)cc21" 261 to 263 °C

Recall and state the measured melting point for CC(C)(C)OC(=O)NCC1CCCCC12NC(=O)NC2=O (stereo unspecified) . 229 to 231 °C

Give reported melting point value for O=C(O)C1CSC(c2cccc(Br)c2)N1 (stereo unspecified) 165 to 167 °C

Supply recorded melting point for CC(CC(=O)O)NCCO (stereo unspecified) here. 180 to 182 °C

Report melting point for "CC(C)Cn1[nH]c(CC(=O)O)cc1=O" 164 to 166 °C

###

Each entry below lists one item and its recorded melting point value.

Sample answers from the record:
[
  {
    "COMPOUND": "COc1ccc2c(c1)CCCC(=O)N2",
    "melting point": "142 to 144 °C"
  },
  {
    "COMPOUND": "Cc1[nH]c2ccc(CN)cc2c1C",
    "melting point": "149 to 151 °C"
  },
  {
    "COMPOUND": "COc1ccc(F)cc1C(F)(F)C(=O)O",
    "melting point": "125 to 127 °C"
  },
  {
    "COMPOUND": "Cn1c(Cl)cnc1CC(N)=S",
    "melting point": "142 to 144 °C"
  },
  {
    "COMPOUND": "O=C(O)c1csc(-c2ccco2)n1",
    "melting point": "181 to 183 °C"
  }
]

Input NC(c1ccc(Cl)cc1)c1ccc(C(F)(F)F)cc1 (centres undefined) , output reported melting point. 58 to 60 °C

Return the recorded melting point value; entry: CC(C1CC2CCC1C2)n1c(N)cc(=O)[nH]c1=O (centres undefined) 248 to 250 °C

###

PROPERTY_NAME: melting point

Field: example entries. Status: answers known.
[
  {
    "MOLECULE": "Cc1cnn(-c2ccc(C(N)=O)cc2N)c1",
    "melting point": "164 to 166 °C"
  },
  {
    "MOLECULE": "Nc1ccc(S)c(Br)c1",
    "melting point": "94 to 96 °C"
  },
  {
    "MOLECULE": "CC(C)(C)n1cc(C#N)cc1N",
    "melting point": "105 to 107 °C"
  },
  {
    "MOLECULE": "Cc1[nH]c(-c2ncccn2)nc(=O)c1CC(=O)O",
    "melting point": "194 to 196 °C"
  },
  {
    "MOLECULE": "NC1CCN(c2ccccc2Cl)C1=O (stereo unspecified)",
    "melting point": "70 to 72 °C"
  }
]

Here's the next entry for you.
Specify melting point for "COC(=O)c1cc(S(=O)(=O)Cl)c(Br)cc1Cl" and stop. 135 to 137 °C

###

melting point by entry:

Worked set:
[
  {
    "COMPOUND": "O=C(CBr)c1ccc2c(c1)CCC2",
    "PROPERTY_NAME": "melting point",
    "RESULT": "57 to 59 °C"
  },
  {
    "COMPOUND": "N#Cc1ccc(OCc2cccc(C(=O)O)c2)cc1",
    "PROPERTY_NAME": "melting point",
    "RESULT": "221 to 223 °C"
  },
  {
    "COMPOUND": "O=C1N(Cc2ccccc2)CCN1S(=O)(=O)Cl",
    "PROPERTY_NAME": "melting point",
    "RESULT": "112 to 114 °C"
  },
  {
    "COMPOUND": "COc1ccc(-c2nn(-c3ccccc3)cc2C(=O)O)cc1",
    "PROPERTY_NAME": "melting point",
    "RESULT": "244 to 246 °C"
  },
  {
    "COMPOUND": "CCOc1ccc2cc(C(=O)O)[nH]c2c1",
    "PROPERTY_NAME": "melting point",
    "RESULT": "168 to 170 °C"
  },
  {
    "COMPOUND": "C=CCN(c1ccccc1Cl)S(=O)(=O)c1cccc(C(=O)O)c1",
    "PROPERTY_NAME": "melting point",
    "RESULT": "103 to 105 °C"
  }
]

Kindly indicate its recorded melting point. Item: CCCC(=O)N1CCCC1C(=O)O (stereo not drawn) 115 to 117 °C

Quote melting point reported for "CCc1ccccc1NC(=O)CN1CCNCC1" please. 88 to 90 °C

Entry "Nc1ccc(C(=O)NCCO)cc1" needs its melting point filled in; supply it. 115 to 117 °C

Output melting point of "COc1ccc(O)cc1C(C)=O" 78 to 80 °C

Tell me measured melting point for "Cc1c(S(=O)(=O)Cl)cnn1-c1ccccn1" please. 53 to 55 °C

Supply measured melting point of "CNS(=O)(=O)c1ccccc1CN" in your reply. 115 to 117 °C

In one line, give reported melting point of the entry "O=C(O)c1occc1COc1ccccc1" . 129 to 131 °C

###

Quick list: melting point per entry.

Some solved cases for reference:
[
  {
    "COMPOUND": "NC(=O)C(O)C1CCOC1 (configuration not stated)",
    "RESULT": "84 to 86 °C"
  },
  {
    "COMPOUND": "NC(=O)c1cc(N2CCCCC2)ccc1N",
    "RESULT": "168 to 170 °C"
  },
  {
    "COMPOUND": "CC(C)c1ccc(C2CC2C(=O)O)cc1 (configuration not stated)",
    "RESULT": "67 to 69 °C"
  }
]

Return melting point for the following compound: "O=[N+]([O-])c1cc(Br)cc(S(=O)(=O)Cl)c1" 47 to 49 °C

Specify melting point for "NC(=O)c1ncc(Br)cc1Br" and stop. 187 to 189 °C

Please give the documented melting point of "O=C(O)c1coc(Br)c1" 133 to 135 °C

###

We begin with a simple list: items and their reported melting point.

[
  {
    "COMPOUND": "O=C(Nc1cccnc1)c1ccc(O)cc1",
    "RESULT": "273 to 275 °C"
  }
]

Read the entry "CCOc1ccccc1C=NO" and write its reported melting point. 64 to 66 °C

Please give the documented melting point of "NC(=S)c1cccc(-c2nnc(N)o2)c1" 259 to 261 °C

Please list melting point recorded for the compound "O=C(O)c1cc(-c2ccc(Cl)cc2)on1" 185 to 187 °C

Check the records and state melting point for "Cn1cc(S(=O)(=O)Cl)cc1C(=O)O" 164 to 166 °C

Quick one: give measured melting point for "CCn1ncc2c(C(=O)O)cc(-c3cccs3)nc21" 243 to 245 °C

###

melting point: recorded values

Completed entries (count: 4):
[
  {
    "COMPOUND": "CS(=O)c1ccc(C=O)cc1 (stereo not drawn)",
    "melting point": "88 to 90 °C"
  },
  {
    "COMPOUND": "O=C(O)CCc1ccc(Br)cc1F",
    "melting point": "97 to 99 °C"
  },
  {
    "COMPOUND": "CS(=O)(=O)N1CC(C(=O)O)Oc2ccccc21 (stereo not drawn)",
    "melting point": "167 to 169 °C"
  },
  {
    "COMPOUND": "O=C(O)c1ccc(CS(=O)(=O)c2ccccc2)o1",
    "melting point": "180 to 182 °C"
  }
]

Specify reported melting point for the compound shown: "CCOC(=O)C(=O)CC(=O)c1cccnc1" 66 to 68 °C

For "NNc1nc2cc(C(F)(F)F)ccc2s1" , write its melting point. 219 to 221 °C

Supply melting point value. Item: "COc1cc(SC)ccc1C(=O)O" 111 to 114 °C

Quickly give me recorded melting point for "Cc1nc(Cl)nc(Cl)c1[N+](=O)[O-]" 52 to 54 °C

State, in one line, measured melting point of "COC(=O)c1cc(SC(=O)N(C)C)c(OC)cc1[N+](=O)[O-]" 139 to 141 °C

Let me know recorded melting point for "Cc1c(Cl)cc(S(=O)(=O)Cl)cc1[N+](=O)[O-]" , thanks. 60 to 62 °C

Given the compound CC1CCCCN1c1cc(C(=O)O)ccn1 (stereo not drawn) , write its reported melting point. 164 to 166 °C

Input O=C(O)C1CCCN1c1ncc(C(F)(F)F)cc1Cl (stereo not drawn) , output reported melting point. 99 to 101 °C

Answer with reported melting point of "Cc1cc(C)n2nc(S)nc2n1" 259 to 261 °C
